# Tested on: H1N1 A/Puerto Rico/08/1934-GFP influenza virus
# assay overview: organism not typed
# Assay type: cell-based, H1N1 A/Puerto Rico/08/1934 influenza virus
# experimental context: MDCK, 20 h; read-out: Antiviral activity of VX-787 free payloads IC50
pIC50: −log10 of the molar value.
Criterion: pIC50 meeting or surpassing 8. Met: met. Not met: not met.

Worked cases, answers included:
>>> assigned_category("O=C(NO)[C@H]1C2CCC(CC2)[C@@H]1Nc1nc(-c2n[nH]c3ncc(F)cc23)nc2sccc12")
"met"
>>> assigned_category("O=C(NO)[C@H]1C2CCC(CC2)[C@@H]1Nc1nc(-c2c[nH]c3ncc(F)cc23)ncc1F [Compound 20a]")
"met"

Asked: Quick check, pIC50 >= 8? `O=C(NO)[C@H]1C2CCC(CC2)[C@@H]1Nc1nc(-c2n[nH]c3ncc(F)cc23)ncc1F`
Given back: met

Asked: // next record `O=C(O)[C@H]1C2CCC(CC2)[C@@H]1Nc1nc(-c2c(CO)[nH]c3ncc(F)cc23)ncc1F`
Given back: not met
